# target: Endothelin receptor type B (Homo sapiens, UniProt P24530)
# Sequence (P24530 whole entry): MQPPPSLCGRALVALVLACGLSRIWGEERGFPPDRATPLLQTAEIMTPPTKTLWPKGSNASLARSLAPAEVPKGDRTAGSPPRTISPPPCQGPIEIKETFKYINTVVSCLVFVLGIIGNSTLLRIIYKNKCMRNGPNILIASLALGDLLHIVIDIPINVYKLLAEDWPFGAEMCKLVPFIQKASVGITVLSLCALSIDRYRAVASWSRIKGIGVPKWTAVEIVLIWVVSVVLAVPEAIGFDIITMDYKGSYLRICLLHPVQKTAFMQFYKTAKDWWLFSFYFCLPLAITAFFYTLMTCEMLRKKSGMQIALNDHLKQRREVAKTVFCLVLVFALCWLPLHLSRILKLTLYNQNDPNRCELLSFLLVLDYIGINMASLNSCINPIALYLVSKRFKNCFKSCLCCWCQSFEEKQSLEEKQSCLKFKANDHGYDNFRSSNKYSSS
# protocol text: Inhibition of human endothelin B (ETB) receptor expressed in CHO cells
# IC50 values compiled below
Answer in nM, number only, no unit symbol.

Here's what some known entries look like.
> print(dat)
                                   molecule                                    target  observed.value
1  CCCc1cc(Cn2c(CC)nc3c(C)cc(C)nc32)cc(CCC)c1OC(C(=O)O)c1ccc2c(c1)OCO2 (configuration not stated)  Endothelin receptor type B (Homo sapiens, UniProt P24530)             230
2  CCCc1cc(Cn2c(CC)nc3c(C)cc(C)nc32)cc(CCC)c1OC(C(=O)NS(=O)(=O)c1cccs1)c1ccc2c(c1)OCO2 (configuration not stated)  Endothelin receptor type B (Homo sapiens, UniProt P24530)             540
3  CCCc1cc(Cn2c(CC)nc3c(C)cc(C)nc32)cc(CCC)c1OC(C(=O)O)c1cc(Br)c(OC)c(OC)c1Br (configuration not stated)  Endothelin receptor type B (Homo sapiens, UniProt P24530)           31000

Answer with IC50 of CCCc1cc(Cn2c(CC)nc3c(C)cc(C)nc32)cc(CCC)c1OC(C(=O)NS(=O)(=O)c1ccc(CC(C)C)s1)c1ccc2c(c1)OCO2 (configuration not stated) measured for Endothelin receptor type B (Homo sapiens, UniProt P24530). 420

Answer with IC50 of CCCc1cc(Cn2c(CC)nc3c(C)cc(C)nc32)cc(CCC)c1OC(C(=O)NS(=O)(=O)C(C)C)c1ccc2c(c1)OCO2 (configuration not stated) measured for Endothelin receptor type B (Homo sapiens, UniProt P24530). 1900

Answer with IC50 of CCCc1cc(Cn2c(CC)nc3c(C)cc(C)nc32)ccc1OC(C(=O)O)c1ccccc1 (configuration not stated) measured for Endothelin receptor type B (Homo sapiens, UniProt P24530). 47000

Answer with IC50 of CCCc1cc(Cn2c(CC)nc3c(C)cc(C)nc32)cc(CCC)c1OC(C(=O)NS(C)(=O)=O)c1ccc2c(c1)OCO2 (configuration not stated) measured for Endothelin receptor type B (Homo sapiens, UniProt P24530). 1200
